- experimental-details: Cmax in BALB/c mouse at 10 mg/kg, po administered as single dose measured after 24 hrs by LC-MS/MS analysis
- Format: ADME, organism-based
- Parameters: dose 10 mg/kg, route oral
- cond: in vivo
measurement-name: Cmax (ng/mL)
One number for each entry, in ng/mL.

Challenge: Read off the recorded Cmax for `Nc1nnc(N2CCC(N3Cc4ccccc4OC[C@@H]3Cc3ccc(Cl)cc3)CC2)[nH]1`
Response given: 3100

----------
- experimental-details: AUC (0 to infinity) in Sprague-Dawley rat at 10 mg/kg, po administered as single dose measured after 24 hrs by LC-MS/MS analysis
- Format: ADME, organism-based
- Design: dose 10 mg/kg, time infinity, route oral
- cond: in vivo
Please respond with reported AUC(0-inf) for every item in the list.
Give bare numbers, in ng·h/mL.

[[record]]
smiles_str = "CC(C)CN(CCc1ccc(Cl)cc1)C1CCN(c2nc(N)n[nH]2)CC1"
observed_result = 90


# batch: return AUC(0-inf) for each of the 5 compounds below
1. Nc1nc(N2CCC(N(CCc3ccc(Cl)cc3)Cc3cc(F)ccc3F)CC2)n[nH]1
2. Nc1n[nH]c(N2CCC(N(CCc3ccc(Cl)cc3)Cc3ccccc3Cl)CC2)n1
3. Nc1nc(N2CCC(N(CCc3ccc(Cl)cc3)Cc3ccc(F)cc3Cl)CC2)n[nH]1
4. Nc1nc(N2CCC(N(CCc3ccc(Cl)cc3)Cc3ccc(Cl)cc3)CC2)n[nH]1
5. Nc1nc(N2CCC(N(CCc3ccc(Cl)cc3)Cc3cccc(Cl)c3)CC2)n[nH]1

Response given:
[2400, 1400, 7500, 7000, 7800]

# batch: return AUC(0-inf) for each of the 2 compounds below
1. Nc1nc(N2CCC(N(CCc3ccc(Cl)cc3)Cc3cccc(C(F)(F)F)c3)CC2)n[nH]1
2. Nc1nc(N2CCC(N(CCc3ccc(Cl)cc3)Cc3ccncc3Cl)CC2)n[nH]1

Response given:
1. 13700
2. 430
